- tested.system: T1, RAD51 (UniProt Q06609 1-339)
- T1 construct: No tag is named; also called RAD51 recombinase; source: E. coli BLR pRARE (pET11-RAD51), purified (ammonium sulfate, Q Sepharose, hydroxyapatite, Mono-Q)
- T1 sequence (looked up): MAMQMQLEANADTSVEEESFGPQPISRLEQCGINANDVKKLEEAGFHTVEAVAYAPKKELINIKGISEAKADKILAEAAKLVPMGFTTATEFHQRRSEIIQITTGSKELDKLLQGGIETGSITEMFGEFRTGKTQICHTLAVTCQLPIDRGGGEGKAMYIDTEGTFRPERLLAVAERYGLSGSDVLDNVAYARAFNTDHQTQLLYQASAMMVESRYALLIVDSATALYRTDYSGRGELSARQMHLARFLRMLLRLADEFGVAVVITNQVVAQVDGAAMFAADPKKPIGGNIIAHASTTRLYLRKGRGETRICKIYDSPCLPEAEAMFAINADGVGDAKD
- method: pull-down; CTRB species held through the S-tag on S-Protein agarose; RAD51 and CTRB 4 µg each; 25 µl buffer T (25 mM Tris-HCl pH 7.5, 0.5 mM EDTA, 10% glycerol, 0.01% Igepal) with 150 mM KCl and Benzonase; on ice 30 min, resin 1 h at 4 °C; SDS-PAGE, Coomassie
- test.settings: both partners purified
observable: binding result

binder="CTRB-S3291A (domain or fragment, human, UniProt P51587 3194-3418, looked up, BRCA2, human, CTRB (residues 3194-3418) with S3291A; Called a CTRB mutant purified as wild-type CTRB; source: E. coli, purified using the procedure developed for wild-type CTRB) PTKDCTSGPYTAQIIPGTGNKLLMSSPNCEIYYQSPLSLCMAKRKSVSTPVSAQMTSKSCKGEKEIDDQKNCKKRRALDFLSRLPLPPPVSPICTFVAPAAQKAFQPPRSCGTKYETPIKKKELNSPQMTPFKKFNEISLLESNSIADEELALINTQALLSGSTGEKQFISVSESTRTAPTSSEDYLRLKRRCTTSLIKEQESSQASTEECEKNKQDTITTKKYI" result=binds
binder="CTRB-S3291E (domain or fragment, human, UniProt P51587 3194-3418, looked up, BRCA2, human, CTRB (residues 3194-3418) with S3291E; Called a CTRB mutant purified as wild-type CTRB; source: E. coli, purified using the procedure developed for wild-type CTRB) PTKDCTSGPYTAQIIPGTGNKLLMSSPNCEIYYQSPLSLCMAKRKSVSTPVSAQMTSKSCKGEKEIDDQKNCKKRRALDFLSRLPLPPPVSPICTFVEPAAQKAFQPPRSCGTKYETPIKKKELNSPQMTPFKKFNEISLLESNSIADEELALINTQALLSGSTGEKQFISVSESTRTAPTSSEDYLRLKRRCTTSLIKEQESSQASTEECEKNKQDTITTKKYI" result=binds
binder="CTRB (BRCA2 residues 3194-3418), His6-Thioredoxin-S tagged, C-terminally Flag-tagged (domain or fragment, human, UniProt P51587 3194-3418, looked up, BRCA2, human, residues 3194-3418 of the 3,418-residue protein; No tag cleavage is described; also called wild-type CTRB; source: E. coli Rosetta (pET32a), purified (Ni-NTA, Source S, anti-Flag M2, Mono-Q)) PTKDCTSGPYTAQIIPGTGNKLLMSSPNCEIYYQSPLSLCMAKRKSVSTPVSAQMTSKSCKGEKEIDDQKNCKKRRALDFLSRLPLPPPVSPICTFVSPAAQKAFQPPRSCGTKYETPIKKKELNSPQMTPFKKFNEISLLESNSIADEELALINTQALLSGSTGEKQFISVSESTRTAPTSSEDYLRLKRRCTTSLIKEQESSQASTEECEKNKQDTITTKKYI" result=binds
binder="CTRB-4A (BRCA2 residues 3194-3418, KKRR(3266-3269) to AAAA) (domain or fragment, human, UniProt P51587 3194-3418, looked up, BRCA2, human, residues 3194-3418; also called 4 A mutant; source: E. coli Rosetta (pET32a), purified as the wild type) PTKDCTSGPYTAQIIPGTGNKLLMSSPNCEIYYQSPLSLCMAKRKSVSTPVSAQMTSKSCKGEKEIDDQKNCAAAAALDFLSRLPLPPPVSPICTFVSPAAQKAFQPPRSCGTKYETPIKKKELNSPQMTPFKKFNEISLLESNSIADEELALINTQALLSGSTGEKQFISVSESTRTAPTSSEDYLRLKRRCTTSLIKEQESSQASTEECEKNKQDTITTKKYI" result=binds
